experiment: Acute lethality, single intraperitoneal injection (Table XIII); format: in vivo
Each item that follows carries a reported LD50.
result type: LD50

[[record]]
compound = "NC1CCCCC1N.O.O.O=C([O-])CN(CCO)CC(=O)[O-].[Pt+2] [Compound 39]"
result = "150 mg/kg"

[[record]]
compound = "CN(CC(=O)[O-])CC(=O)[O-].NC1CCCCC1N.O.[Pt+2] [Compound 28]"
result = "92 mg/kg"

[[record]]
compound = "O.O.O=C([O-])C[N-]CC(=O)O.[NH-]C1CCCCC1[NH-].[Pt] [Compound 11, iminodiacetato(DACH)Pt(II).2H2 O]"
result = "107 mg/kg"

[[record]]
compound = "NC1CCCCC1N.O.O.O=C([O-])CN(CC(=O)[O-])c1ccccc1.[Pt+2] [Compound 37]"
result = "81 mg/kg"

[[record]]
compound = "NC1CCCCC1N.O=C([O-])CN(CC(=O)[O-])Cc1ccccc1.[Pt+2] [Compound 38, N--Benzyliminodiacetato(DACH)Pt(II)]"
result = "140 mg/kg"


###

system: L1210 cells; assay: In vivo anti-tumor activity, L1210, single i.p. injection; design: species or system BDF1 mice; settings: single i.p., 12.5 mg/kg
result type: % T/C (%)

[[record]]
compound = "CN(CC(=O)[O-])CC(=O)[O-].NC1CCCCC1N.O.[Pt+2] [Compound 28]"
result = 161

[[record]]
compound = "NC1CCCCC1N.O.O.O=C([O-])CN(CC(=O)[O-])c1ccccc1.[Pt+2] [Compound 37]"
result = 172

[[record]]
compound = "NC1CCCCC1N.O.O=C([O-])C1CCN1.O=C([O-])C1CCN1.[Pt+2] (stereo not drawn) [Compound 15]"
result = 157

[[record]]
compound = "NC1CCCCC1N.O=S(=O)([O-])CCCl.O=S(=O)([O-])CCCl.[Pt+2] (stereo not drawn) [Compound 33]"
result = 188

[[record]]
compound = "CCS(=O)(=O)[O-].CCS(=O)(=O)[O-].NC1CCCCC1N.O.[Pt+2] (stereo not drawn) [Compound 31, Cis-bis-ethanesulfonato(DACH)Pt(II).H2 O]"
result = 109

[[record]]
compound = "NC1CCCCC1N.O.O.O=C([O-])C1CCCN1.O=C([O-])C1CCCN1.[Pt+2] (stereo not drawn) [Compound 36]"
result = 179

[[record]]
compound = "NC1CCCCC1N.O.O=C([O-])C1CC1.O=C([O-])C1CC1.[Pt+2] (stereo not drawn) [Compound 29]"
result = 252

[[record]]
compound = "NC1CCCCC1N.O.O=C([O-])C1CCCCN1.O=C([O-])C1CCCCN1.[Pt+2] (racemic) [Compound 18]"
result = 145

[[record]]
compound = "NC1CCCCC1N.O=C([O-])CN(CC(=O)[O-])Cc1ccccc1.[Pt+2] [Compound 38, N--Benzyliminodiacetato(DACH)Pt(II)]"
result = 123


###

Below, each entry is listed with its recorded LD90.
assay: Acute lethality, single intraperitoneal injection (Table XIII); format: in vivo
result type: LD90 (mg/kg)

[[record]]
test_smiles = "NC1CCCCC1N.O=C([O-])CN(CC(=O)[O-])Cc1ccccc1.[Pt+2]"
unit_of_measure = "mg/kg"
result = 210

[[record]]
test_smiles = "NC1CCCCC1N.O.O.O=C([O-])CN(CCO)CC(=O)[O-].[Pt+2]"
unit_of_measure = "mg/kg"
result = 301

[[record]]
test_smiles = "O.O.O=C([O-])C[N-]CC(=O)O.[NH-]C1CCCCC1[NH-].[Pt]"
unit_of_measure = "mg/kg"
result = 169

[[record]]
test_smiles = "CN(CC(=O)[O-])CC(=O)[O-].NC1CCCCC1N.O.[Pt+2]"
unit_of_measure = "mg/kg"
result = 170

[[record]]
test_smiles = "NC1CCCCC1N.O.O.O=C([O-])CN(CC(=O)[O-])c1ccccc1.[Pt+2]"
unit_of_measure = "mg/kg"
result = 135

